SYSTEM_TESTED: JAK3 (Homo sapiens, UniProt P52333)
Sequence (P52333 1-1124): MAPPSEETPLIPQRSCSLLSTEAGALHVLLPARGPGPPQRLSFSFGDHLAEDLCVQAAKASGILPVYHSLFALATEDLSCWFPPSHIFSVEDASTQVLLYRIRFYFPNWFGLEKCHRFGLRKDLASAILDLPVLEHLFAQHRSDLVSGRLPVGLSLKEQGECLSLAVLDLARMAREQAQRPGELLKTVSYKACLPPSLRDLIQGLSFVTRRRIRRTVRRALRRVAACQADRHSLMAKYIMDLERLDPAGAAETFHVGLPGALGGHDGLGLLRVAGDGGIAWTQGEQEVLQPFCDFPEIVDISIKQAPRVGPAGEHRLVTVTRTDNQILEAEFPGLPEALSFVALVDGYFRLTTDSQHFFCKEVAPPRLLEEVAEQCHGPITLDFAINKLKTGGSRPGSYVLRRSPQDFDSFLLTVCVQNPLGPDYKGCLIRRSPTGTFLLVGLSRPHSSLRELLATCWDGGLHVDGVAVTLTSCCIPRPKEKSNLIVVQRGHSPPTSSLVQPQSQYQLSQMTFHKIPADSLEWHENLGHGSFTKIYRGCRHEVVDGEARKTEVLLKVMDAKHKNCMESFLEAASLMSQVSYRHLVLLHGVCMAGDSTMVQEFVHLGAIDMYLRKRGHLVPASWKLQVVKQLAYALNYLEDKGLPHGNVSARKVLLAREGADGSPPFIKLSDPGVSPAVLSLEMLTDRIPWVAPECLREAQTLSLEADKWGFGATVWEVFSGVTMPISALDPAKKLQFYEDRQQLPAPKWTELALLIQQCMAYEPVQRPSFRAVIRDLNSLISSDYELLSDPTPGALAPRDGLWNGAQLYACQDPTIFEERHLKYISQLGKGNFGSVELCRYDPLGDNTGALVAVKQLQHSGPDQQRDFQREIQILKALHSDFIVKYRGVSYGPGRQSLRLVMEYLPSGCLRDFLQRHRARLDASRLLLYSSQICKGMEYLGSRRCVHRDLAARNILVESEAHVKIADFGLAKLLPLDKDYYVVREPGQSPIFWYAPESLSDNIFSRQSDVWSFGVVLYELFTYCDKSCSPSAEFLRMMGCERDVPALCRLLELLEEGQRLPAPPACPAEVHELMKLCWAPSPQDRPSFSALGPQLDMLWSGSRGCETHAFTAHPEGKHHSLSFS
pKi: −log10 of the molar value.
MEASURED_ATTRIBUTE: pKi

INSERT INTO assay_data (compound, observed_value) VALUES
  ('CN1C(=O)COc2ccc(-c3ccnc(Nc4cccc(O)c4)n3)cc21 [IVa-27]', '> 6.00'),
  ('COc1cccc(Nc2nccc(-c3ccc4c(c3)N(Cc3ccccn3)C(=O)CO4)n2)c1 [IVa-57]', '> 6.00'),
  ('NS(=O)(=O)c1cccc(Nc2nccc(-c3ccc4c(c3)N(Cc3ccncc3)C(=O)CO4)n2)c1 [IVa-70]', '> 5.30'),
  ('COc1ccc(Nc2nccc(-c3ccc4c(c3)N(C)C(=O)CO4)n2)cc1 [IVa-5]', '> 5.30'),
  ('O=C1COc2ccc(-c3ccnc(Nc4ccc(F)cc4)n3)cc2N1 [IVa-11]', '> 5.30');

====

Recorded Ki, one value per entry.
SYSTEM_TESTED: JAK3 (Homo sapiens, UniProt P52333)
Sequence (P52333 1-1124): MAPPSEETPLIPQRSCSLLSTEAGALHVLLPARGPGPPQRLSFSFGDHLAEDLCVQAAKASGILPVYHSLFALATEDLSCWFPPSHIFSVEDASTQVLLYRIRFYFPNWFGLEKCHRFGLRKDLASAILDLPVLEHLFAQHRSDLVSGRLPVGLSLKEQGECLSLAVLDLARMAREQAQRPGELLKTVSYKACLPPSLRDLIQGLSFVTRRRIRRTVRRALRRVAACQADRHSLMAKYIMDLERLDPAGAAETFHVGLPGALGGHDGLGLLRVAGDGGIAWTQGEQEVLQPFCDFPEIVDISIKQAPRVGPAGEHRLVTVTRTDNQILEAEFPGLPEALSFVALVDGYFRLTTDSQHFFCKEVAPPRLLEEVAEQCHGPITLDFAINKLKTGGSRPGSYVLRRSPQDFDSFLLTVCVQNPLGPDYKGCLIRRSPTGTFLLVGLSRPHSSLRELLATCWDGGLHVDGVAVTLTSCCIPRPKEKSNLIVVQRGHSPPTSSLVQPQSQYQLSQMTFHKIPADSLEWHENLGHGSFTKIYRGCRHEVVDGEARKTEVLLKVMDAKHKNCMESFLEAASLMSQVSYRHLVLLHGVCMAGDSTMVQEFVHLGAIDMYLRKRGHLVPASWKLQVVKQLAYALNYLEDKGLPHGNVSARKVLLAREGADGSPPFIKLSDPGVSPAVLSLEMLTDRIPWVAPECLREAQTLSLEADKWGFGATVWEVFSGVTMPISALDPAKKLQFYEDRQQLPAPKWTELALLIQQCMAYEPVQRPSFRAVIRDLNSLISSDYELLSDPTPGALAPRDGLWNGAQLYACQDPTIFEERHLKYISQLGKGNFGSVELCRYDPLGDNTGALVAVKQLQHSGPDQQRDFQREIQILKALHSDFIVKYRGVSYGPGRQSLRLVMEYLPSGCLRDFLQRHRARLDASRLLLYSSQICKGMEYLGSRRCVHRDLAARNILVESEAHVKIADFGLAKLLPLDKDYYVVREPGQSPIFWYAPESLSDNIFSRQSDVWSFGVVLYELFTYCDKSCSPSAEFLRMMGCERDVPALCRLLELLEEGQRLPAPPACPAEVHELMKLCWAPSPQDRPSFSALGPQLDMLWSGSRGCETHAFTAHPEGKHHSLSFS
MEASURED_ATTRIBUTE: Ki

INSERT INTO measurements (smiles_code, observed_value) VALUES
  ('Cc1cc(C)cc(Nc2nccc(-c3ccc4c(c3)N(C)C(=O)CO4)n2)c1', '< 1 µM'),
  ('O=C1COc2ccc(-c3ccnc(Nc4cccc(Cl)c4)n3)cc2N1CCN1CCOCC1', '< 5 µM'),
  ('NS(=O)(=O)c1ccc(Nc2nccc(-c3ccc4c(c3)N(CCN3CCOCC3)C(=O)CO4)n2)cc1', '< 5 µM'),
  ('COc1cc(Nc2nccc(-c3ccc4c(c3)N(C)C(=O)CO4)n2)cc(OC)c1', '< 1 µM'),
  ('O=C1COc2ccc(-c3ccnc(Nc4ccc(Cl)cc4)n3)cc2N1', '< 5 µM'),
  ('COc1cccc(Nc2nccc(-c3ccc4c(c3)N(C)C(=O)CO4)n2)c1', '< 1 µM'),
  ('O=C1COc2ccc(-c3ccnc(Nc4cccc(Cl)c4)n3)cc2N1Cc1ccncc1', '< 5 µM'),
  ('COc1cccc(Nc2nccc(-c3ccc4c(c3)N(Cc3cccnc3)C(=O)CO4)n2)c1', '< 5 µM'),
  ('O=C1COc2ccc(-c3ccnc(Nc4ccccc4)n3)cc2N1CCN1CCOCC1', '< 5 µM'),
  ('CN1C(=O)COc2ccc(-c3ccnc(Nc4cccc(F)c4)n3)cc21', '< 5 µM'),
  ('O=C1COc2ccc(-c3ccnc(Nc4cccc(F)c4)n3)cc2N1', '< 5 µM'),
  ('O=C1COc2ccc(-c3ccnc(Nc4cccc(Cl)c4)n3)cc2N1Cc1ccccn1', '< 5 µM');
